Data credit: patent US20260258115A1

SYSTEM_TESTED: RSV F on RSV-A2 virus (Respiratory syncytial virus, RSV-A2, UniProt P03420 26-574)
ASSAY_TEXT: cell-based or functional assay
QUANTITY_KIND: Neutralization IC50 (RSV subtype A) (µg/mL)
Quick note: give the figure in µg/mL, leave out the unit.

binder="ADI-41595 (antibody, V domains shown) VH: QVQLVQSGGGVVQPGGSLRLSCAASGFTFSDYGMHWVRQAPGKGLEWVAVISDGGSNQYSADSVRGRFTISRDNSKNTLYLQMNSLRPEDTAVYYCAKARIAARAIFDYWGQGTLVTVSS VL: DIQLTQSPSSLSASVGERITITCQASRDVRIYLNWYQHKPGKAPKLLIYDASNLETGVPSRYSGSGSGTDFTFTISSLQPEDIATYFCQQYDLLPPTFGVGTKVEIK" quantity_kind="Neutralization IC50 (RSV subtype A)" units_of_measure=µg/mL recorded_value=0.0475

I have this binder here, ADI-41563 (antibody, V domains shown) VH: QVQLVESGPGLVKPSETLSLTCTVSDDSITNNFWTWIRQPPGKGLEWIGYIYYSGSTNYNPSLKSRITMSVDLSKNQFSLKLSSVTAADTAVYYCARLTSGGVDYWGQGTLVTVSS VL: QSVLTQPPSLSGAPGQRVTISCTGSSSNIGADYHVHWYQQLPGTAPKLLIYQNTNRPSGVPDRFSASKSGTSVSLAITGLQAEDEADYYCQSYDSSLSAWVFGGGTKLTVL , and I need its recorded Neutralization IC50 (RSV subtype A). 0.0323
